Measurement notes: antimalarial activity against Dd2 strain (AID 2302);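 further: 0% = DMSO untreated growth and 100% = chloroquine plus artemisinin killed control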
Assay setup: P. falciparum Dd2 in RBCs, LDH growth readout, 72 h; at 2 µM; hits give high values
Readings of growth inhibition for the listed compounds
Respond numerically; units are % and should not be typed.

Illustrative cases are given below, each with its answer.
# growth inhibition of COc1ccc(CNC(=O)c2cnc3c(O)cccc3c2Nc2cccc(NC(=O)c3ccc(Cl)c([N+](=O)[O-])c3)c2)cc1 = 21

# growth inhibition of COc1cc(Cc2cnc(N)nc2N)cc(OC(C)C)c1OC = 15

# growth inhibition of CC1(C)S(=O)(=O)CC(O)CS1(=O)=O = 9

# growth inhibition of CC(C)Sc1nncc(-c2cnnc(SC(C)C)n2)n1 = 100

# growth inhibition of CC(Oc1ccc(C(=O)c2ccc(F)cc2)cc1)C(=O)N1CCc2ccccc21 (stereo not given) = 95

Read the next record carefully.
# growth inhibition of CCN(CC)S(=O)(=O)c1ccc(Cl)c(C(=O)Nc2ccc3nc(C)sc3c2)c1 = 94

###

Readings of inhibition for the listed compounds
System tested: L-lactate dehydrogenase (Plasmodium falciparum (isolate CDC / Honduras)) (UniProt Q27743)
Sequence (Q27743 whole entry, looked up): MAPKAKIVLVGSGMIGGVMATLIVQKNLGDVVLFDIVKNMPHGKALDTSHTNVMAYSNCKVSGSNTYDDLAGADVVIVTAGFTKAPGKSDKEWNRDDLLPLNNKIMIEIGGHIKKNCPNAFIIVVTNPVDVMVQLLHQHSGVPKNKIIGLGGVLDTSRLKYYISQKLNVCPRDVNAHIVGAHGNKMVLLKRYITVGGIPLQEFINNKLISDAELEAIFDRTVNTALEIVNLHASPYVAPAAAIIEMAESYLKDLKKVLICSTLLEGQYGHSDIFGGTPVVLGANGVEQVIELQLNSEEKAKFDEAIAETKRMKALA
Measurement notes: PfLDH activity inhibition – cell lysate, 3D7 strain, counter-screen for P. falciparum growth inhibition project (AID 2304);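 further: 0% = vehicle and 100% = reference inhibitor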
Assay setup: P. falciparum 3D7 crude extract, LDH APAD/NBT absorbance; at 2 µM; hits give high values
Respond numerically; units are % and should not be typed.

# inhibition of CCC(=O)Oc1ccc(NC(=O)c2cccc(OC)c2)cc1 = 6

# inhibition of CC(C)c1cc2c(ccc3nc(N)nc(N)c32)[nH]1 = 2

---
# inhibition of Cc1cccc2[nH]c(-c3ccc(-c4cccc(NC(=O)C(C)CN(C)C)c4)cc3)nc12 (stereo not given) = 1

# inhibition of Cc1c(CCC#N)c(NCc2ccccc2)n2c(nc3ccccc32)c1C#N = 2

###

Measurement notes: inhibition of 3D7 malaria parasite growth – strain 3D7 (AID 2306);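 further: 0% = DMSO wells and 100% = chloroquine plus artemisinin control wells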
Assay setup: P. falciparum 3D7 erythrocytic growth, LDH absorbance, 72 h; at 2 µM; hits give high values
Property label: growth inhibition (%)
Respond numerically; units are % and should not be typed.

Illustrative cases are given below, each with its answer.
# growth inhibition of CCCC(C)N(Cc1ccc(C(C)(C)C)cc1)C(=O)c1cccc(OC)c1 (stereo not given) = 100

# growth inhibition of CC1CCN(Cc2c(O)ccc3c(=O)c(-c4nc5ccccc5s4)c(N)oc23)CC1 = 98

# growth inhibition of CC(Cc1ccc(NC(=O)c2ccc(CNCCc3ccccc3)cc2)cc1)NCCc1cccc(Cl)c1 (stereo not given) = 100

---
# growth inhibition of CN(C)CCCNCc1ccc(-c2ccc(CNCCOc3ccccc3)cc2)cc1 = 100

# growth inhibition of Clc1ccc(-c2nc3ccc(-c4ccc5nc(-c6ccc(Cl)cc6)[nH]c5c4)cc3[nH]2)cc1 = 101

###

System tested: L-lactate dehydrogenase (Plasmodium falciparum (isolate CDC / Honduras)) (UniProt Q27743)
Measurement notes: PfLDH activity inhibition – cell lysate, 3D7 strain, counter-screen for P. falciparum growth inhibition project (AID 2304);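 further: 0% = vehicle and 100% = reference inhibitor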
Assay setup: P. falciparum 3D7 crude extract, LDH APAD/NBT absorbance; at 2 µM; hits give high values
Active and inactive are the calls of the source. How the calls were made is not given here.
Property label: inhibition

# inhibition of O=C(Nc1cccc(CN2CCN(C(=O)c3ccccc3)CC2)c1)c1cccs1 = 1% (inactive)

# inhibition of COc1ccc(C2(CNCC(O)c3cccc([N+](=O)[O-])c3)CCCC2)cc1OC (stereo not given) = 5% (inactive)

# inhibition of Cc1cc(NN=CC=Cc2ccccc2)c2ccc(F)cc2n1 = -3% (inactive)

# inhibition of COC(=O)c1sc2ccccc2c1NC(=O)c1ccc(C)c(C)c1 = -7% (inactive)

# inhibition of O=C(/C=C/c1ccc(Cl)c(Cl)c1)NCCCCCN1CCCN(C(=O)Nc2cc(Cl)cc(Cl)c2)CC1 = 6% (inactive)

---
# inhibition of Cc1cc(NC(=O)Nc2ccc3sccc3c2)c2ccccc2n1 = 0% (inactive)

# inhibition of O=C(Nc1cccc(-c2nn3ncccc3c2-c2ccnc(Nc3ccc(N4CCOCC4)cc3)n2)c1)c1c(F)cccc1F = 7% (inactive)

# inhibition of Fc1ccc(C=NNc2ccnc3ccccc23)cc1 = 4% (inactive)

# inhibition of CC(C)c1ccc(NC(=O)c2ccc(CN3CCCN(Cc4cccc(Cl)c4)CC3)cc2)cc1 = 5% (inactive)

# inhibition of CC(Cc1ccc(NC(=O)c2ccc(CC(C)NCc3ccc(Cl)cc3)cc2)cc1)NCCc1cccc(Cl)c1 (stereo not given) = -5% (inactive)
